- study_target: JAK2 (Homo sapiens, UniProt O60674)
- Construct: host or cells: baculovirus expression system
- Sequence (O60674 whole entry): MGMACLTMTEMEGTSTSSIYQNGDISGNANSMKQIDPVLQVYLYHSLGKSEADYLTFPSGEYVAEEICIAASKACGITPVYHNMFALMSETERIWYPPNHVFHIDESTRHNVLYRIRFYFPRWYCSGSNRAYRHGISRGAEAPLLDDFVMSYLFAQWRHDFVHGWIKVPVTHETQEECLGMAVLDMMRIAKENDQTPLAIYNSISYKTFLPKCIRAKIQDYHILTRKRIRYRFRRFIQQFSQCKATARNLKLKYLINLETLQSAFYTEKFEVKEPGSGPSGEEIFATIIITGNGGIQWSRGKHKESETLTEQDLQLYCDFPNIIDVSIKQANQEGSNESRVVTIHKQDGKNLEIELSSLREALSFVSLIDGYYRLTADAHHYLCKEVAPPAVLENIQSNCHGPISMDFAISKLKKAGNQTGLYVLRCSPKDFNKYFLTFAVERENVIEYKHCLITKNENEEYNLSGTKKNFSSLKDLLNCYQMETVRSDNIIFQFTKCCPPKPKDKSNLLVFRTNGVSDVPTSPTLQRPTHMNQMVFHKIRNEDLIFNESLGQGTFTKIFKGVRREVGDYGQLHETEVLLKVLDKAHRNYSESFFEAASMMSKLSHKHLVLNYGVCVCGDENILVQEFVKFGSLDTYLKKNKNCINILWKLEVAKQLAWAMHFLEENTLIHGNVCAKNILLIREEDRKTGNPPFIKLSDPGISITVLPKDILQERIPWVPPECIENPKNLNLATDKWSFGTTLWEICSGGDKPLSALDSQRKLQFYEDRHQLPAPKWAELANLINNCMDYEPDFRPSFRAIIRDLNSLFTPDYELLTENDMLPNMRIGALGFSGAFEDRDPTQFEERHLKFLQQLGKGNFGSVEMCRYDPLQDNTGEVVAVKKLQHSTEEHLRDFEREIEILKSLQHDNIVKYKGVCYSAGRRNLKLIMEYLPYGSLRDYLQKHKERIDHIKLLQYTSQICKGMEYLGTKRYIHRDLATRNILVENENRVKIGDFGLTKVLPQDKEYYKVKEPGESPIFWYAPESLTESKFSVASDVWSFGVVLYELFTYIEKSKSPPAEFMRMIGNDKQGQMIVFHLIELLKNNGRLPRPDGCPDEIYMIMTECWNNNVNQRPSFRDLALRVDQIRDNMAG
- assay_procedure: Recombinant Human JAK2 Kinase Assay (TRF)
- Format: biochemical
- condition_summary: JAK2 kinase inhibition, 0.2 μM ATP; read-out: JAK2 Potency
- Procedure: Compounds were tested for their ability to inhibit the kinase activity of baculovirus-expressed JAK2 using the TRF detection system. […] The plates were coated first with 100 μL/well of 10 μg/mL Neutravidin (Pierce #31000, Rockford, Ill.) in TBS at 37° C. for 2 hours, followed by 100 μL/well of 1 μg/mL 15-mer peptide substrate (biotinyl-amino-hexanoyl-[…]-amide, Infinity Biotech Research and Resource, Aston, Pa.) at 37° C. for another hour. […]
Record form. Attribute: IC50. Fill in for each entry.

May I ask what IC50 has been recorded for COc1cc2c(cc1Nc1ncc3ccc(-c4ccccc4OC)n3n1)CCN(C[C@@H](C)O)CC2 ? 0.1 to 1 µM

Fill blank: measured IC50 of the molecule COc1cc(CN2CCN(C)CC2)ccc1Nc1ncc2ccc(-c3ccccc3OC)n2n1 is ____. 0.1 to 1 µM

State the recorded IC50 for this entry: CN(c1ncccc1-c1ccc2cnc(Nc3ccc(C4CCN(CC(N)=O)CC4)cc3)nn12)S(C)(=O)=O < 0.1 µM

Report IC50 for CC(=O)N1CCCCc2ccc(Nc3ncc4ccc(-c5cccc(NS(C)(=O)=O)c5)n4n3)cc21 please. < 0.1 µM

Give the measured IC50 of NC(=O)CN1CCC(c2ccc(Nc3ncc4ccc(-c5cccc6c5OCC6)n4n3)cc2)CC1 . < 0.1 µM

For the molecule CN1CCN(c2ccc(Nc3ncc4ccc(-c5ccccc5N(C)S(C)(=O)=O)n4n3)nc2)CC1 , what IC50 is on record? < 0.1 µM

I am curious: what IC50 value has been reported for Cn1cnc(-c2ccc3cnc(Nc4ccc(N5CCOCC5)cc4)nn23)c1 ? < 0.1 µM

Return reported IC50; argument: CN(c1ccccc1-c1ccc2cnc(Nc3cccnc3)nn12)S(C)(=O)=O < 0.1 µM

Sample COc1cc(C2CCN(C(=O)C(C)(C)N)CC2)ccc1Nc1ncc2ccc(-c3ccccc3N(C)S(C)(=O)=O)n2n1 — what was its IC50? 0.1 to 1 µM

Can you look up the measured IC50 of COc1ccc(-c2ccc3cnc(Nc4ccc(C5CCN(CC(N)=O)CC5)c(NC(C)=O)c4)nn23)cn1 for me? < 0.1 µM

I have this molecule here, CN1CCN(C)C(c2ccc(Nc3ncc4ccc(-c5ccccc5N(C)S(C)(=O)=O)n4n3)cc2)C1=O (stereo not drawn) , and I need its recorded IC50. < 0.1 µM

Please give the measured IC50 for this molecule: CN1CCN(c2ccc(Nc3ncc4ccc(-c5ccccc5O)n4n3)cc2)CC1 < 0.1 µM

GET /values?readout=IC50&item= COc1ccccc1-c1ccc2cnc(Nc3cccc(C(=O)N4CCN(C)CC4)c3OC)nn12 1 to 10 µM

If you can, please state the reported IC50 value of COc1cc(-c2ccc3cnc(Nc4ccc(C5CN(CC(N)=O)C5)cc4)nn23)c(OC)nn1 . < 0.1 µM

Find the recorded IC50 belonging to CC(C)(C)NS(=O)(=O)c1cccc(-c2ccc3cnc(Nc4ccc(C5CCN(CCO)CC5)cc4)nn23)c1 and report it. < 0.1 µM

Form field: reported IC50 of COc1cc(N2CCC(N3CCOCC3)CC2)ccc1Nc1ncc2ccc(-c3cccc4c3OCCO4)n2n1 < 0.1 µM

Would you kindly share the measured IC50 for COc1cc(C2CCN(CC(=O)O)CC2)ccc1Nc1ncc2ccc(-c3ccccc3OC)n2n1 ? 0.1 to 1 µM

So what's the measured IC50 for this one? CN1CCC(c2ccc(Nc3ncc4ccc(-c5cccnc5)n4n3)cc2)CC1 < 0.1 µM

I would be grateful if you could share the reported IC50 for CS(=O)(=O)Nc1cccc(-c2ccc3cnc(Nc4ccc(C5CCN(CC(N)=O)CC5)cc4)nn23)c1 . < 0.1 µM

Would you kindly share the measured IC50 for COc1ccccc1-c1ccc2cnc(Nc3cnn(C4CCNCC4)c3)nn12 ? < 0.1 µM

Requested field: IC50. Item: COc1ccccc1-c1ccc2cnc(Nc3cccc(S(=O)(=O)N(C)C)c3)nn12 < 0.1 µM

Value source: patent US8471005B2
